Hey, just so you know, these numbers are from the supplement of paper PMC9170038.

test system: K4 kissing-loop RNA reporter; test: apparent KD of K4 kissing-loop reporter; higher = weaker reporter binding; conditions: Eterna round: R107; input ligand: none
Documented apparent KD of K4 kissing-loop reporter across a set of sequences
Write the value in nM as a bare number.

Sample answers from the record:
Task: Looking for the measured apparent KD of K4 kissing-loop reporter of GCGAAGAAGGUUGAUACCAGUCUUGCGUGUCAAGCGCCAGUGAUGUUGGGCCUGUAGAUCGACCCUUGGCAGCAACCUCGAAAUG [theeternabot_sameState_KL_Theo_B_28] , can you help?
Result: 844

Task: Please give the result for UCCUAUACCCUUCCCGGACGCCGUGGAGAUACCAGCCACGUAGCGGGCCCUUGGCAGCUCGAGUGAUGUUCGAGAUCGUCAGGAU [Veteve] too.
Result: 127

Task: Please give the result for AACUCUCAGGCACCUGAGUGAUGUUCAGGCCGAGGACCGGUACGGCCGCCACUCGGGCCUGAGAGAGGUUAUCAAAGAUAGCCAA [Omei KL Tryp A SS A v2] too.
Result: 528

More entries:
Task: Looking for the measured apparent KD of K4 kissing-loop reporter of CGACUAGUCUUGCAACCCUAGUCGAUAGACUAGGAUAUCAGGAAACUGAGAAGGAGUCUACUUGCAGUGAUGUUGCAAGAAUAAU [[F]''-[K]'-[F]'-[F1]-[F2]-[K1]-[K2]_Design6] , can you help?
Result: 170

Task: Please give the result for CACCAUGAAUUCUCUAGGAGUGAUGUUUUUCGAGGACCGGUACGGCCGCCACUCGGACGAGGACCGUGGGAGCGGCGAAGCGACU [wwegmullin] too.
Result: 109

Task: Please give the result for AAAAUAAAUAGCAGUCACGGAGUGAUGUUCCGAGGACCGGUACGGCCGCCACUCGACCAUCAUAAGAUGGAAUGGCGAGACUGCA [#SwitchBubble 21 #K4Early] too.
Result: 137

Task: Please give the result for UGUAAGCGCGUAGAUACCAGCAGACGAGUGAUGUUCGAGAGAUUAAGGAAAAGAAAGUGAUGCCCUUGGCAGCUAAUCAUAAGCG [whbob_Ex_Theo_B_sa95] too.
Result: 288

* * *

Documented apparent KD of MS2 coat protein across a set of sequences
tested on: MS2 coat protein; test: apparent KD of MS2 coat protein, switch OFF state (with FMN for OFF switches, without FMN for ON switches); designed switch direction (-1 OFF switch, 1 ON switch): 1; higher = weaker reporter binding; details: FMN input: 0 or 200 uM; Eterna round: R93 (includes R88 designs)
Write the value in nM as a bare number.

Sample answers from the record:
Task: Looking for the measured apparent KD of MS2 coat protein of GGAAGACAUGAGGAUCACCCAUGUGGGAAUAUGGGAGGAUAUACAAAGACGAGAGUCAGAGUAGAAGGCCUAGGAU [salish99-ss1-100] , can you help?
Result: 138

Task: Please give the result for AAGAAACAUGAGGAUCACCCAUGUAAGAUAAACACAGGAUAUGCGAAAGAAACAAAGAAAGCAGAAGGGUGAAGAA [Mat - Same State 1 - Tesla mod - 48] too.
Result: 26.8

Here's the next entry for you.
Task: Looking for the measured apparent KD of MS2 coat protein of AAAAAACAUGAGGAUCACCCAUGUAAAAAAAUGGGAGGAUAUACAAAAACAAAAAAAAAAGUAGAAGGCCUGAAAA [same state 9] , can you help?
Result: 419

* * *

test system: K4 kissing-loop RNA reporter; assay: apparent KD of K4 kissing-loop reporter; higher = weaker reporter binding; settings: Eterna round: R107; input ligand: tryptophan 2.4 mM
# binarize apparent KD of K4 kissing-loop reporter: threshold 200 nM inclusive, high side met, low side not met

Task: hey, is apparent KD of K4 kissing-loop reporter for this one >= 200 nM? UAUUCUGUUCGAAAGAACGGAAUUUCGGAAGGAGCGCGAGAAAUCGCAGGUAGGUCGCCGAAAUUAUUAGGUAGUGAUGUUACCU [Arginine A K4 6]
Result: not met

Task: Please give the result for CCGAAGAACCAGUGAUGUUGGUUGACUAGACAGGAUAUGAGCAACAUCAGAAGGGUCUGGCUUCGGGAGUGGGUCACGCUGACCU [Iserreanor] too.
Result: met

Task: Please give the result for AGAGAGGUGUUUUUUUGAAGUGAGUAAUGGCGAGGACCGGUACGGCCGCCACUCGGGUGAUGUUAGUGAUGUUGAUGUAGUGAUG [yrymullin] too.
Result: not met

Task: Please give the result for GAUAUAGUGAUGUUAUAUACUGAUAGACAACGAGGACCGGUACGGCCGCCACUCGAGAGGGUGAAAAUGAUGAUAAAAUAAUAAU [#01 K4 Tryptophan A Exclusion] too.
Result: met

Task: Please give the result for AUAUCUGUUCGAAAGAACGGAUCUUCGGAAGGAGCGCGUGAAAACGCAGGUAGGUCGCCGAAGUUAUUAGGUAGUGAUGUUACCU [Arginine A K4 7] too.
Result: not met

Task: Please give the result for UGUACCGAGUCAGGAUAUGGCGUCGAAAGACGAAACCAGUGAUGUUGGAAUCGAUCGAAAGAUCGUCCAGAAGGGACUUGGUACU [FmnBS 21 #SwitchBubble #StaticStem #DoubleMagnetSystem] too.
Result: met

More entries:
Task: hey, is apparent KD of K4 kissing-loop reporter for this one >= 200 nM? CAUUCGAAAUGCAGUGAUGUUGCAACCGAUACCAGUAUCGAAAGAUACCCUUGGCAGCGGAAAACCGCUACGUAUUUUUUGAAUG [Ex Theophylline A K4 26]
Result: met

Task: Please give the result for GGACGACAGGCGGCCGCCACUCACAGCAGCCAGCGAGUGAUGUUCGUAGCGGAGUGAUGUUCCGAGAGGACCGGGUCUGCAGUCC [Same State Tryptophan B GF 17] too.
Result: met

Task: Please give the result for CUUAGGAGUGGUGUUGAUUAGGGAGCGGAAGGAGCGCCAAUGAUGGCAGGUAGGUCGCCGGAAUGUAGUGAUGUUGCAUAGAGGG [ExArgA.S] too.
Result: met

* * *

tested on: MS2 coat protein; assay: apparent KD of MS2 coat protein; higher = weaker reporter binding; conditions: Eterna round: R107; input ligand: theophylline 2 mM
# binarize apparent KD of MS2 coat protein: threshold 0.02 µM inclusive, high side yes (1), low side no (0)

Observe how each entry below is paired with its result.
Task: hey, is apparent KD of MS2 coat protein for this one >= 0.02 µM? CGCCGCGCGGGAAGGAGCGCGAUUACAUAACAUGAGGAUCACCCAUGUAAGAAAUUAUUCAUGCAGGUAGGUCGCCCGCGCGGCG [Same State Arginine B GF 5]
Result: yes (1)

Task: Please give the result for UGUGCAUGAGUUGGAAAAGCUCAUGGGCAUCGAGGACCGGUACGGCCGCCACUCGGCUGUACAUGAGGAUCACCCAUGUCAGGGU [#1 Same State - Tryptophan A Attempt #23 (HarryS)] too.
Result: yes (1)

Task: Please give the result for UAACAUGAGGAUCACCCAUGUUUAGAUGAACGAGGACCGGUACGGCCGCCACUCGAUAAGUGGAAAGAGCGAGGGAUUGUAUGCU [Same State Trp A GF4] too.
Result: no (0)

Task: Please give the result for GGUGGCUCCAUCGAUACCAGCCACCACCGAUAGACCACAUGAGGAUCACCCAUGUUGGGUGGCCCUUGGCAGCGGUGAAGCUGCC [#1 Same State - Theophylline B Attempt #4 (HarryS)] too.
Result: yes (1)

Task: Please give the result for ACGUUGUAGUCGGCCGCCACUGUUUUCAUGUUCAACAUGAGGAUCACCCAUGUACCUUUUUUUAUCAGGACCGGGACGUAUUCGA [JR_SSTryptoB_Sub003] too.
Result: yes (1)

We next turn to a different sequence, shown below.
Task: hey, is apparent KD of MS2 coat protein for this one >= 0.02 µM? AUACAUGAGGAUCACCCAUGUCAUUCAGAAGGAGCGUCAUUAUUGACAGGUAGGUCGCUGAUAAAAUUUUUAUACAUUAUGUUUA [JR_SSArginiA_Sub014]
Result: no (0)

* * *

test system: K4 kissing-loop RNA reporter; test: apparent KD of K4 kissing-loop reporter; higher = weaker reporter binding; conditions: Eterna round: R107; input ligand: tryptophan 2.4 mM;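 note: bound reporter read as fluorescence of individual clusters on recovered sequencing chips by microscopy, with normalized cluster intensities fitted with a binding model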
# binarize apparent KD of K4 kissing-loop reporter: threshold 200 nM inclusive, high side Criterion met, low side Criterion not met

Observe how each entry below is paired with its result.
Task: hey, is apparent KD of K4 kissing-loop reporter for this one >= 200 nM? CUGACCAACAGCGAUACCAGUGUGGAGUGAUGUUCCCUGGUCCGGGCUGAUGUUCCCUUGCGCCCUUGGCAGCGCAGAAGCAGGU [Exclusion Theophylline B GF 13]
Result: Criterion met

Task: Please give the result for AAGAGUUGACGAAAAGUCAACUCACGAGAAGGAGCGCACGAAAGUGCAGGUAGGUCGCUCAGUCCAGUGAUGUUGGAACAUAAAA [#OpenEnded 7] too.
Result: Criterion not met

We next turn to a different sequence, shown below.
Task: hey, is apparent KD of K4 kissing-loop reporter for this one >= 200 nM? CCAUUCUUUUACGAUACCAGUUUAAUAUAUUUAAUCAAAACCCUCGCCGAGUGAUGUUCGGACCCUUGGCAGCGUUUGCGAGAGG [bjnbstkmullin]
Result: Criterion met
